Measurement Protocol: GlaB brain level concentration by HPLC-ESI-MS after intranasal administration
Type: in vivo, mice
Experimental Setup: C57BL/6, mouse, brain, other: nasal administration (intranasal), 1.44 mg/Kg; mice, two hours post one single nasal administration of GlaB/PEG-Cholane; read-out: estimated brain level concentration
Observation Type: concentration at 2 h (ng/g)

- Molecule: "COc1cc(OC)c2c(=O)c(-c3ccc(OCC=C(C)C)c(OCC=C(C)C)c3)coc2c1 [GlaB, Glabrescione B]"
  Observed: 3600
